Task for the reader: assign each of the following compounds its reported Ki.
- tested on: Norepinephrine transporter (Rattus norvegicus)
- experiment: Inhibition of uptake of tritiated norepinephrine (NE) in rat synaptosomes
- Format: subcellular, Brain
Remember to put the unit after the number in your answer.

Below: 2 compounds and their reported Ki.
Br.COc1ccc([C@@H]2CN3CCC[C@H]3c3ccccc32)cc1    27.6 nM
Br.Brc1ccccc1[C@@H]1CN2CCC[C@@H]2c2ccccc21    1.5 nM

I would be grateful if you could provide Ki for each of the following entries.
1. Clc1cccc([C@@H]2CN3CCC[C@H]3c3ccccc32)c1
2. Br.F[C@]1(c2ccccc2)CN2CCC[C@H]2c2ccccc21

Completion:
100 nM
30.7 nM

---

Can you tell me Ki for the items I'm about to list?
- tested on: Serotonin 2 (5-HT2) receptor (Rattus norvegicus, UniProt P30994+P08909+P14842)
- experiment: Binding affinity towards 5-hydroxytryptamine 2 receptor
- Assay type: protein assay
Answers are plain numbers, in nM.

Below are worked cases with known answers.
FC(F)(F)c1cccc([C@@H]2CN3CCC[C@@H]3c3ccccc32)c1 (stereo in doubt; 37b)    602
CSc1ccc([C@@H]2CN3CCC[C@@H]3c3ccccc32)cc1 (stereo in doubt; (-)-48b)    939
Br.Clc1cccc([C@@H]2CN3CCC[C@@H]3c3ccccc32)c1    49
CSc1ccc([C@@H]2CN3CCC[C@@H]3c3ccccc32)cc1 (stereo in doubt; (+)-48b)    142
Br.Nc1ccc([C@@H]2CN3CCC[C@H]3c3ccccc32)cc1    29

Provide Ki values for the following items, in order.
1. COc1ccc2c(c1)CN(C)CC2c1ccc(Cl)c(Cl)c1 (stereo not given)
2. Br.Fc1ccc([C@@H]2CN3CCC[C@@H]3c3cc(F)ccc32)cc1
3. CN1CCc2cc(Cl)c(O)cc2[C@@H](c2ccccc2)C1
4. CSc1ccc([C@@H]2CN3CCC[C@@H]3c3ccccc32)cc1 (stereo in doubt; 48b)
5. FC(F)(F)c1cccc([C@@H]2CN3CCC[C@H]3c3ccccc32)c1

Completion:
1: 37; 2: 7.4; 3: 13; 4: 208; 5: 29

---

Would you kindly list pKi for each of these compounds?
- tested on: Norepinephrine transporter (Rattus norvegicus, UniProt Q9WTR4)
- Sequence (Q9WTR4 whole entry): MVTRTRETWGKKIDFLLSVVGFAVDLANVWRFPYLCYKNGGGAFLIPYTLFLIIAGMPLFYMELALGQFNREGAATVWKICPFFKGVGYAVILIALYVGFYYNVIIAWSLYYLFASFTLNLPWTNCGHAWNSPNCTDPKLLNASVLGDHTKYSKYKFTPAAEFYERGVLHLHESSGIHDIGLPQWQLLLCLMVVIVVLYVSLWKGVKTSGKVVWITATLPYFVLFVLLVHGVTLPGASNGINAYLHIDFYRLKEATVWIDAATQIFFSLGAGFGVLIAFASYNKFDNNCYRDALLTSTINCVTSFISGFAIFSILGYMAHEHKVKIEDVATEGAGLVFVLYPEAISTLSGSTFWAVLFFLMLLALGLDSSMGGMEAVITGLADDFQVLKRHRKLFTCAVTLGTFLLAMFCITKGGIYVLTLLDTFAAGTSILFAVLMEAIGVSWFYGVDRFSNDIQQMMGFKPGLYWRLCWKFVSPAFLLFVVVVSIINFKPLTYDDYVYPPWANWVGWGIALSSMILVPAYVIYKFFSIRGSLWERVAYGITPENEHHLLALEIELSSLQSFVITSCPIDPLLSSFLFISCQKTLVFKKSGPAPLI
- experiment: Inhibition of uptake of tritiated norepinephrine (NE) in rat synaptosomes
One number for each entry, as −log10 of the molar value.

Br.Cn1ccc2c1[C@@H](c1ccccc1)CN1CCC[C@@H]21    8.12

Quick request: pKi for each listed item, please.
1. Br.Oc1ccc([C@@H]2CN3CCC[C@H]3c3ccccc32)cc1O
2. Br.Oc1ccccc1[C@@H]1CN2CCC[C@@H]2c2ccccc21
3. CCN1Cc2ccccc2C(c2ccccc2)C1 (stereo unspecified)
4. Clc1ccc([C@@H]2CN3CCC[C@H]3c3cc(Cl)ccc32)cc1
5. Br.COc1cc([C@@H]2CN3CCC[C@@H]3c3ccccc32)cc(OC)c1OC
6. Br.Oc1ccc([C@@H]2CN3CCC[C@@H]3c3ccccc32)cc1
7. Br.COc1ccc([C@@H]2CN3CCC[C@@H]3c3ccccc32)cc1OC
8. Br.Oc1ccc([C@@H]2CN3CCC[C@@H]3c3ccccc32)cc1O

Completion:
[7.65, 8.06, 8.25, 7.47, 6.79, 9.13, 8.47, 9.09]

Each of the following entries comes with a recorded value; kindly state pKi for each.
1. Br.COc1ccc([C@@H]2CN3CCC[C@@H]3c3ccccc32)cc1
2. C[C@@]12CCCN1C[C@H](c1ccccc1)c1ccccc12
3. FC(F)(F)c1cccc([C@@H]2CN3CCCC3c3cc(Cl)ccc32)c1 (stereo partly specified)

Completion:
9.10
7.62
7.49

Give pKi for each listed item.
1. COc1ccc(NC(=O)Nc2ccc([C@@H]3CN4CCC[C@H]4c4ccccc43)cc2)cc1
2. COc1cccc([C@@H]2CN3CCC[C@@H]3c3ccccc32)c1
3. Br.c1ccc2c(c1)[C@@H](C1CCCCC1)CN1CCC[C@@H]21
4. COc1ccc2c(c1)CN(C)CC2c1ccc(Cl)c(Cl)c1 (stereo unspecified)
5. COc1ccc2c(c1)[C@H]1CCCN1C[C@H]2c1ccccc1
6. Br.O[C@@]1(c2ccccc2)CN2CCC[C@H]2c2ccccc21
7. c1ccc([C@@H]2CN3CC[C@H]3c3ccccc32)cc1
8. Br.C[C@]1(c2ccccc2)CN2CCC[C@H]2c2ccccc21

Completion:
1: 7.82; 2: 9.19; 3: 7.09; 4: 8.06; 5: 8.66; 6: 7.39; 7: 6.06; 8: 8.90

All values here come from ChEMBL document CHEMBL1123812.
